- System: HCI-012 (organoid from a breast cancer xenograft)
- PROTOCOL DESCRIPTION: CTG-3D luminescence at 96 h relative to day-0 seeding control (ratio to day 0); higher = more growth / less cytotoxicity; PDxO 3D drug screen (set 2), 96 h, CTG-3D normalised to day-0 seeding control.
- PROTOCOL CONDITIONS: 12.5 pM; days in culture: 214
Reported CTG-3D luminescence at 96 h values for the following molecules.
ATTRIBUTE MEASURED: CTG-3D luminescence at 96 h

* CC(=O)c1c(C)c2cnc(Nc3ccc(N4CCNCC4)cn3)nc2n(C2CCCC2)c1=O [palbociclib] | 2.51
* CO[C@H]1C[C@@H]2CC[C@@H](C)[C@@](O)(O2)C(=O)C(=O)N2CCCC[C@H]2C(=O)O[C@H]([C@H](C)C[C@@H]2CC[C@@H](OCCO)[C@H](OC)C2)CC(=O)[C@H](C)/C=C(\C)[C@@H](O)[C@@H](OC)C(=O)[C@H](C)C[C@H](C)/C=C/C=C/C=C/1C [everolimus] | 2.76
* O=C(c1cc(Cc2n[nH]c(=O)c3ccccc23)ccc1F)N1CCN(C(=O)C2CC2)CC1 [olaparib] | 2.61
* Nc1cc(C(F)(F)F)c(-c2cc(N3CCOCC3)nc(N3CCOCC3)n2)cn1 [buparlisib] | 1.75
* COc1cccc2c1C(=O)c1c(O)c3c(c(O)c1C2=O)C[C@@](O)(C(=O)CO)C[C@@H]3O[C@H]1C[C@H](N)[C@@H](O)[C@H](C)O1 [epirubicin] | 2.15

###

- System: HCI-025 (organoid from a breast cancer xenograft)
- PROTOCOL DESCRIPTION: CTG-3D luminescence at 96 h relative to day-0 seeding control (ratio to day 0); higher = more growth / less cytotoxicity; PDxO 3D drug screen (set 2), 96 h, CTG-3D normalised to day-0 seeding control.
- PROTOCOL CONDITIONS: 1 µM; days in culture: 189
ATTRIBUTE MEASURED: CTG-3D luminescence at 96 h

- O=C(c1cc(Cc2n[nH]c(=O)c3ccccc23)ccc1F)N1CCN(C(=O)C2CC2)CC1: 1.86
- CO[C@H]1C[C@@H]2CC[C@@H](C)[C@@](O)(O2)C(=O)C(=O)N2CCCC[C@H]2C(=O)O[C@H]([C@H](C)C[C@@H]2CC[C@@H](OCCO)[C@H](OC)C2)CC(=O)[C@H](C)/C=C(\C)[C@@H](O)[C@@H](OC)C(=O)[C@H](C)C[C@H](C)/C=C/C=C/C=C/1C: 0.974
- Cc1c(CN2CCN(C(=O)[C@H](C)O)CC2)sc2c(N3CCOCC3)nc(-c3cnc(N)nc3)nc12: 0.518
- CO[C@H]1C[C@@H]2CC[C@@H](C)[C@@](O)(O2)C(=O)C(=O)N2CCCC[C@H]2C(=O)O[C@H]([C@H](C)C[C@@H]2CC[C@@H](O)[C@H](OC)C2)CC(=O)[C@H](C)/C=C(\C)[C@@H](O)[C@@H](OC)C(=O)[C@H](C)C[C@H](C)/C=C/C=C/C=C/1C: 0.888
- Nc1cc(C(F)(F)F)c(-c2cc(N3CCOCC3)nc(N3CCOCC3)n2)cn1: 1.36
- COc1cccc2c1C(=O)c1c(O)c3c(c(O)c1C2=O)C[C@@](O)(C(=O)CO)C[C@@H]3O[C@H]1C[C@H](N)[C@@H](O)[C@H](C)O1 [epirubicin]: 0.108
- CCOc1ccn(-c2ccc(F)cc2)c(=O)c1C(=O)Nc1ccc(Oc2ccnc(N)c2Cl)c(F)c1: 2.6
